# Test System: a4b7(E97V) (human) (UniProt P13612)
# Sequence (P13612 34-1032, chain 1 of 2): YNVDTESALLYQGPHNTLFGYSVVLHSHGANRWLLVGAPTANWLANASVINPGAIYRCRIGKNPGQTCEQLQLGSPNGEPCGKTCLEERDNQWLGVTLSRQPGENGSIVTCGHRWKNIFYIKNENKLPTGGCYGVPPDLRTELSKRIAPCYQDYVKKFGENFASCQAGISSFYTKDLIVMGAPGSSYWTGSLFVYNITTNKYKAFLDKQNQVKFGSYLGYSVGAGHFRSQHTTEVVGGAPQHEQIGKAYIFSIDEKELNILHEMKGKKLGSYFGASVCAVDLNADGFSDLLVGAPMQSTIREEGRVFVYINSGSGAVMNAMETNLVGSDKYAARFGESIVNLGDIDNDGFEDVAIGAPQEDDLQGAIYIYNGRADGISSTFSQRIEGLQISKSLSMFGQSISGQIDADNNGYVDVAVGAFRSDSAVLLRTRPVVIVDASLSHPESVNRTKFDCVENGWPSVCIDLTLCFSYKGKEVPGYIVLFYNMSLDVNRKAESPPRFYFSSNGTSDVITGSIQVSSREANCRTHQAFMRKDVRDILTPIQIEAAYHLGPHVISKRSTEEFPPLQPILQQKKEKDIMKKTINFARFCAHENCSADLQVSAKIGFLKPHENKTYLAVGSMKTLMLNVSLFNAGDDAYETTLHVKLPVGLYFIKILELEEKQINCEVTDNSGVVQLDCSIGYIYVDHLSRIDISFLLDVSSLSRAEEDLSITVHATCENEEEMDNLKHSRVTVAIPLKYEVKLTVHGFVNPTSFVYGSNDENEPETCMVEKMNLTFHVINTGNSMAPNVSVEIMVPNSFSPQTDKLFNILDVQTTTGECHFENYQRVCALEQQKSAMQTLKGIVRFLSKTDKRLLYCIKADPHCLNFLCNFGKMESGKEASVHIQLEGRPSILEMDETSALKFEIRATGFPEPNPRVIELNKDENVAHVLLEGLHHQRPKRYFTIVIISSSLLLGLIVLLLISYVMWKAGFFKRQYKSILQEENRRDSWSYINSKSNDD
# Sequence (P26010 20-798 E97V, chain 2 of 2, further chain): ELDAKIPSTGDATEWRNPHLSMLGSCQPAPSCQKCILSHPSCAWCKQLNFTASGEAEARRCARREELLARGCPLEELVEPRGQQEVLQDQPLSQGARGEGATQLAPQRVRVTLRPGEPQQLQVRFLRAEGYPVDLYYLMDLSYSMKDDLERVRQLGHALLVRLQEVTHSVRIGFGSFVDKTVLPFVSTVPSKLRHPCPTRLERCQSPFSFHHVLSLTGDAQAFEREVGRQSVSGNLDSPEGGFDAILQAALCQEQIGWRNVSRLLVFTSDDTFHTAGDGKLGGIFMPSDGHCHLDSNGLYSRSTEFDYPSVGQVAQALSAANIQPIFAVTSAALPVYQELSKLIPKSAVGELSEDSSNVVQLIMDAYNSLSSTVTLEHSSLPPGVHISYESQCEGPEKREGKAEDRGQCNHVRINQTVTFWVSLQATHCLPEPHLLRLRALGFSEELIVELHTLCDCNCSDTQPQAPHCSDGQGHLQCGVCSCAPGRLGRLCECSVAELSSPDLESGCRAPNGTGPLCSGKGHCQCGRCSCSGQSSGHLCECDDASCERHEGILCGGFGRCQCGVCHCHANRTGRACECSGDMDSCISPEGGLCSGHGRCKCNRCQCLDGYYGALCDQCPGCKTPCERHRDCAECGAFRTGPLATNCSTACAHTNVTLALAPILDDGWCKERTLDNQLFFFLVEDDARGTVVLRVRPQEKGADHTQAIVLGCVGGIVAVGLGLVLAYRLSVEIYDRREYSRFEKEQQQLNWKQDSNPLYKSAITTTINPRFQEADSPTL
# Assay Procedure: FACS on transfected 293 cells, 1 microG/ml, PE anti-human IgG
Quantity Name: fluorescence staining intensity (geometric mean)

{"columns": ["Binder", "Test Value"],
 "data": [
  ["17C8 (antibody, V domains shown, Fully human monoclonal from XenoMouse (human IgG2 or IgG4); kappa light chain; also called 17C8K; 17C8H) VH: QVQLVESGGGLVKPGGSLRLSCAASGFTFSDYYMSWIRQAPGKGLEWLSYISNSGSAMYYADSVKGRFTISRDNARNSLYLQMNSLRAEDTAVYYCAREYSSGWFFFESWGQGTLVTVSS VL: EIVMTQSPATLSVSPGERATLSCRASQSVSSNLVWYQQKPGQAPRLLIYGASTRATGIPARFSGSGSGTDFTLTISSLQSEDFAVYYCQQYDDWPPLTFGGGTTVEIK", 96],
  ["26G2 (antibody, V domains shown, Fully human monoclonal from XenoMouse (human IgG2 or IgG4); kappa light chain; also called 26G2k; 26G2K) VH: QVQLVESGGGLVKPGGSLRLSCAASGFTFSDYYMSWIRQAPGKGLEWVSYISSIGSAIHYADSVKGRFTISRDNAKNSLYLQMNSLRAEDTAVYYCAREYSSGWAYFDYWGQGTLVTVSS VL: DIQMTQSPSSVSASVGDRVTITCRASQDISSWLAWYQQKPGTAPKVLIYSASSLQNGVPSRFSGRGSGTDFALTISSLQPEDFATYYCQQADSFPWTFGRGTKVEIK", 113],
  ["22B2 (antibody, V domains shown, Fully human monoclonal from XenoMouse (human IgG2 or IgG4); kappa light chain; also called 22B2K; 22B2H) VH: EVQLVQSGAEVKEPGESLKISCKGSGYIFTSYWIAWVRQLPGKGLEWMGIIDPNDSDTRYSPSFQGQVTISADKSIHTAYLQWSSLKASDTAMYYCATHRLWLGTLPGGFYIWGQGTMVTVSS VL: DVQMTQSPSSLSASVGDRVTITCQASQDITDYLNWYQQKPGKAPKLLIYDTSNLEAGVPSRFSGSGSGTDFTFTISSLQPEDIATYYCQQYDILPYSFGQGTDLEIK", 108],
  ["25C9 (antibody, V domains shown, Fully human monoclonal from XenoMouse (human IgG2 or IgG4); kappa light chain; also called 25C9k; 25C9K) VH: QVQLVESGGGLVKPGGSLRLSCAASGFTFNDYYMSWIRQAPGKGLEWVSYISSSGSAIHYADSVKGRFTISRDNAKNSLYLQMNSLRAEDTAVYYCAREYSSGWAYFDYWGQGTLVTVSS VL: DIQMTQSPSSVSASVGDRVTITCRASQDISSWLAWYQRKPGKAPKVLIYSASSLQSGVPSRFSGSGSGTDFTLTISSLQPEDFATYYCQQADSFPWTFGQGTKVEIK", 106],
  ["19G6 (antibody, V domains shown, Fully human monoclonal from XenoMouse (human IgG2 or IgG4); kappa light chain; also called 19G6K; 19G6H) VH: QVQLVESGGDLVKPGGSLRLSCAASGFTFSDYYMSWIRQAPGKGLEWISYISSSGSTMYYADSVKGRFTISRVNAKNSLYLQMNSLRAEDTAVYYCARDRSSGLVSFDYWGQGTLVTVSS VL: DIQMTQSPSSLSASVGDRVTISCQASQDINTYLNWYQQKPGKVPKLLIYDASNLETGVPSRFSGSGSGTDFTFTISGLQPEDIATYYCQQFDNLPITFGQGTRLEIK", 108],
  ["2F12 (antibody, V domains shown, Fully human monoclonal from XenoMouse (human IgG2 or IgG4); kappa light chain; also called 2F12K; 2F12H) VH: QVQLVQSGAEVKKPGASVKVSCKVSGYTVTDLSMHWVRQAPGKGLEWMGGFDPQDGETIYAQKFQGRVTMTEDTSTDTAYMELRSLRSEDTAVYYCTTESSSAWFDPWGQGTLVTVSS VL: DIQMTQSPSSVFASVGDRVTITCRASQGISSWLAWYQQKPGKAPNLLIYGASSLQNGVPLRFSGSGSGTDFTLTISSLQPEDFATYYCQQANSFPWTFGQGTKVEIK", 134],
  ["1A10 (antibody, V domains shown, Fully human monoclonal from XenoMouse XG2kl or XG4kl mice (human IgG2 or IgG4); kappa light chain; also called 1A10K; 1A10H) VH: QVQLVQSGAEVKKPGASVKVSCKVSGYTLNDLSMHWVRQAPGKGLEWMGGFDPAEGKIISAQKFQDRVTMTDDTSTDTAYMELSSLRSEDSAVYYCATLDFSSWFDPWGQGTLVTVSS VL: DIQMTQSPSSVSASVGDRVTITCRASQGVSSWLAWYQQKPGMAPKLLIYAASILQSGVPSRFSGSGSGTDFTLTISSLQPEDFATYYCQQANSFPWTFGQGTKVEIK", 135],
  ["3A5 (antibody, V domains shown, Fully human monoclonal from XenoMouse (human IgG2 or IgG4); kappa light chain; also called 3A5K; 3A5H) VH: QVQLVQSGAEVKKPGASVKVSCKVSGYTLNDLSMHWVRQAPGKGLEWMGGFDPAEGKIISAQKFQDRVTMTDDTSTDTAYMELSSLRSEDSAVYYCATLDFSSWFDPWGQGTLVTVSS VL: DIQMTQSPSSVSASVGDRVTITCRASQGVISWLAWYQQKPGMAPKLLIYAASILQSGVPSRFSGSGSGTDFTLTISSLQPEDFATYYCQQANSFPWTFGQGTNVEIK", 135],
  ["18A11 (antibody, V domains shown, Fully human monoclonal from XenoMouse (human IgG2 or IgG4); kappa light chain; also called 18A11K; 18A11H) VH: QVQLVQSGAEVKKPGASVKVSCKVSGYTLSDLSIHWVRQAPGKGLEWMGGFDPQDGETIYAQKFQGRVTMTEDTSTDTAYMELSSLKSEDTAVYYCATGSSSSWFDPWGQGTLVTVSS VL: DIQMTQSPSSVSASVGDRVTITCRASQGISSWLAWYQQKPGKAPKLLIYGASNLESGVPSRFSGSGSGTDFTLTISSLQPEDFANYYCQQANSFPWTFGQGTKVEIK", 105],
  ["27G8 (antibody, V domains shown, Fully human monoclonal from XenoMouse (human IgG2 or IgG4); lambda light chain; PE-conjugated in the cynomolgus study; also called 27G8L; 27G8H) VH: EVQLVESGGGLVQPGGSLRLSCAASGFTFSSYWMSWVRQASGKGLEWVANIKQDGSEKYYVDSVKGRFTISRDNAKNSLYLQMNSLRAEDTAVYYCAREGGYDWNYADYYGMDVWGQGTTVTVSS VL: QSVLTQPPSVSEAPRQRVTISCSGSNSNIGNNPVNWYQLFPGRAPKLLIYHDDLLPSGVSDRFSGSRSGTSASLAISGLQSEDETDYYCTAWDDSLNGWVFGGGTKLTVL", 116]
]}
